Molecular target: T1, C-terminally truncated Ste2p H94Y (Saccharomyces cerevisiae, UniProt D6VTK4 1-303, H94Y)
T1 sequence (looked up): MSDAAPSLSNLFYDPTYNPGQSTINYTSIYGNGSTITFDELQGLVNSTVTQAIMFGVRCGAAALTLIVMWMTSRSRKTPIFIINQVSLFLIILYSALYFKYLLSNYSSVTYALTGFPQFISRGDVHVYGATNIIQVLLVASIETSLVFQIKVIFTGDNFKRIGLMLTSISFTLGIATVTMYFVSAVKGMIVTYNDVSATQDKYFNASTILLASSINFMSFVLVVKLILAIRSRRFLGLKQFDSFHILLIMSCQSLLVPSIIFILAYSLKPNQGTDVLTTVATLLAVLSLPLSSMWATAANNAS
Assay: flow cytometry on cells
measurement_name: Kd (nM)
Dear colleague, please return just the value in nM, with no unit written.

Given the binder WHWLQLKPGQPMY (NBD (7-nitrobenz-2-oxa-1,3-diazol-4-yl) conjugated to the lysine at position 7; norleucine at position 12 in place of methionine) [[K^7(NBD),Nle^12] α-factor] , write its reported Kd.
47
